Reported growth inhibition values follow for various molecules
- Test Details: NCI Yeast Anticancer Drug Screen. Data for the wt1 strain (AID 149);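 further: 0% = growth of vehicle-treated wt1 cultures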
- Applied Conditions: S. cerevisiae wt1 strain (SPY 50644) growth inhibition; at 3.7 µM; active compounds read high
- Protocol: Growth inhibition of yeast strains with defined genetic alterations is measured as a screen for potential anti-cancer activity. Selected strains with alterations in DNA damage repair or cell cycle control were exposed to compounds and growth inhibition was measured relative to vehicle treated controls. The strain used in this assay is wt1
The panel holds about 79,000 compounds, 15% with a hit somewhere; the sample as a whole holds those more often.
# value in %; strip the unit string

Below, each entry is followed by its recorded growth inhibition result.
Molecule	Measure Name	Unit Info	Value Measured
O=C(CSC(=S)N1CCCCC1)Nc1nc2c(s1)CCCC2	growth inhibition	%	-11
CC(C)(C)CC(C)(C)c1cc(O)c(O)c(CN2CCCCC2)c1	growth inhibition	%	1
CC(C)(C)c1ccc(NS(=O)(=O)c2ccc(N)cc2)cc1	growth inhibition	%	2
COc1cc(/C=N/Nc2nnc3c4ccccc4c4ncccc4c3n2)cc(OC)c1OC	growth inhibition	%	-1
O=C1C=C(c2ccccc2)OC1(c1ccccc1)N1CCOCC1 (stereo unspecified)	growth inhibition	%	2

IN: Reported growth inhibition for COc1ccc(C(=O)C(CN(C)C)CN(C)C)cc1 : what is it?
OUT: -1
